- protocol summary: MTS cell toxicity assay, Vero-81 cells
- Format: cell-based
- experimental parameters: African green monkey, 24 h, 10 min light exposure after 1 h, read-out: 50% cytotoxic concentration (CC50)
measured metric: CC50 at 24 h (µM)

compound: C=Cc1c(C)c2cc3nc(c4c5[nH]c(cc6nc(cc1[nH]2)C(C)=C6CC)c(C)c5C(=O)[C@@H]4C(=O)OC)[C@@H](CCC(=O)O)[C@@H]3C [Pba, pheophorbide a]
measured metric: CC50 at 24 h
recorded result: 5.5

---

- tested on: HCoV-229E
- protocol summary: HCoV-229E-Luc infection inhibition luciferase assay
- Type: cell-based
- experimental parameters: against HCoV-229E, Huh-7 cells, normal white light exposure; read-out: IC50
pIC50: −log10 of the molar value.

compound string: O=C1OC2(c3cc(I)c(O)c(I)c3Oc3c2cc(I)c(O)c3I)c2c(Cl)c(Cl)c(Cl)c(Cl)c21
pIC50: 5.54
//
compound string: C=CC1=C(C)c2cc3[n-]c(cc4[n-]c(cc5nc(cc1n2)C(C)=C5C=C)c(C)c4CCC(=O)O)c(CCC(=O)O)c3C.[Zn+2]
pIC50: 6.10
//
compound string: CCC1=C(C)c2cc3[nH]c(cc4nc(cc5c(CCC(=O)O)c(C)c(cc1n2)n5C)C(CCC(=O)O)=C4C)c(C)c3CC
pIC50: 5.90
